Origin of the recorded values: PubChem BioAssay

# assay-explanation: differential killing of epithelial or mesenchymal cells, primary screen, imaging, PC-3E GFP, TEM4-18 mCherry, co-culture (AID 1345086);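 further: cells exposed to compound for 72 h before imaging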
# experimental-context: imaging cell counts, measured here: mesenchymal TEM4-18 mCherry cell survival, at 1 µM
Class yes: normalised cell number at least 1. Class no: normalised cell number below 1.

{"columns": ["compound", "assigned-label"],
 "data": [
  ["O=C(CNC(=O)c1ccc(Cl)cc1)NO", "yes"],
  ["COc1cc(O)c2c(c1)[C@@H](O)[C@@]13CO[C@@H](O)[C@@]1(O3)C2=O", "yes"],
  ["CC(=O)O[C@@H]1CC[C@@]2(C)C(CC[C@]3(C)C2CC=C2C4CC(C)(C)CC[C@]4(C(=O)O)CC[C@]23C)C1(C)C (stereo partly drawn)", "no"],
  ["CC(C)(CO)C(O)C(=O)NCCC(=O)NCCSSCCNC(=O)CCNC(=O)C(O)C(C)(C)CO (stereo not drawn)", "no"],
  ["c1ccc(SCC2CCCNC2)cc1 (stereo not drawn)", "yes"],
  ["CO/N=C(\\C(=O)NC1C(=O)N2C(C(=O)OCOC(=O)C(C)(C)C)=C(/C=C\\c3scnc3C)CSC12)c1csc(N)n1 (stereo not drawn)", "yes"],
  ["CC(CCc1ccc(O)cc1)NCC(O)c1ccc(O)cc1 (stereo not drawn)", "no"],
  ["COC(=O)C[C@H]1C2(C)CC34OC5(C)O[C@]6(C7/C(=C(/O)C(C)C)C(=O)O[C@@H](c8ccoc8)[C@]7(C)C(OC(C)=O)[C@@H](OC(C)=O)[C@]6(O5)C13C)[C@H](OC(C)=O)[C@@]4(O)C2OC(=O)C(C)C (stereo partly drawn)", "yes"],
  ["CC1(C)C(C(=O)O)N2C(=O)C[C@H]2S1(=O)=O (stereo partly drawn)", "no"],
  ["CC(C)(O)[C@@H]1CC[C@](C)([C@H]2[C@@H](O)C[C@@]3(C)C4C[C@H](O[C@@H]5O[C@H](CO)[C@@H](O)[C@H](O)[C@H]5O)C5C(C)(C)[C@@H](O[C@@H]6OC[C@@H](O)[C@H](O)[C@H]6O)CC[C@@]56C[C@@]46CC[C@]23C)O1 (stereo partly drawn)", "no"],
  ["CC(=O)O[C@]1(C(C)=O)CCC2C3C=C(Cl)C4=CC(=O)[C@@H]5C[C@@H]5[C@]4(C)C3CC[C@@]21C (stereo partly drawn)", "no"],
  ["O=C(O)/C=C/C=C/c1ccc2c(c1)OCO2", "yes"],
  ["C[C@]12CCC3c4ccc(OC(=O)c5ccccc5)cc4CCC3C1CC[C@@H]2O (stereo partly drawn)", "yes"]
]}

====

// values below are reported viability
# assay-explanation: liver-stage malaria parasite growth inhibition, primary screen, cell-based, HepG2, luciferase luminescence, HepG2 viability (AID 624349);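 further: 100% = mean of DMSO negative control wells on the same plate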
# experimental-context: P. berghei liver stage in HepG2, luciferase luminescence, concentration not given here; measured here: HepG2 viability without parasites
reported-property: viability (%)

{"columns": ["compound", "reported-property", "data-value"],
 "data": [
  ["CC(CCCCC(=O)Nc1ccc(C(F)(F)F)cc1)NCCc1cnc[nH]1 (stereo not drawn)", "viability", 67],
  ["Cc1coc2c1C(=O)C(=O)c1c-2ccc2c1CCCC2(C)C", "viability", 97.5],
  ["C[C@]12CCC(=O)C=C1CCC1C2[C@@H](O)C[C@@]2(C)C1CC[C@]2(O)C(=O)CO (stereo partly drawn)", "viability", 99.2],
  ["C[C@@H]1O[C@@H](OC[C@H]2OC(Oc3c(-c4ccc(O)c(O)c4)oc4cc(O)cc(O)c4c3=O)[C@H](O)[C@@H](O)[C@@H]2O)[C@H](O)[C@H](O)[C@H]1O (stereo partly drawn)", "viability", 104],
  ["N[C@H](Cc1cc(I)c(Oc2ccc(O)c(I)c2)c(I)c1)C(=O)O", "viability", 99.9],
  ["CO[C@H]1/C=C/O[C@@]2(C)Oc3c(C)c(O)c4c(O)c(c5c(c4c3C2=O)NC2(CCN(CC(C)C)CC2)N=5)=NC(=O)/C(C)=C\\C=C\\[C@H](C)[C@H](O)[C@@H](C)[C@@H](O)[C@@H](C)[C@H](OC(C)=O)[C@@H]1C", "viability", 92.9],
  ["COc1cccc2c1C(=O)c1c(O)c3c(c(O)c1C2=O)C[C@@](O)(C(=O)CO)C[C@@H]3OC1C[C@H](N)[C@H](O)[C@H](C)O1 (stereo partly drawn)", "viability", 53.1],
  ["CCC(CO)NCCNC(CC)CO (stereo not drawn)", "viability", 129],
  ["CN1CC(=O)N2[C@H](c3ccc4c(c3)OCO4)c3[nH]c4ccccc4c3C[C@@H]2C1=O", "viability", 81.8],
  ["CC(C)N(CCC(=O)c1ccc2ccccc2c1)Cc1ccccc1", "viability", 88.8],
  ["NC(=O)Nc1sc(-c2ccc(F)cc2)cc1C(N)=O", "viability", 79.5],
  ["CC[C@@H]1OC(=O)C[C@@H](O)[C@H](C)[C@@H](O[C@@H]2O[C@H](C)[C@@H](O)[C@H](N(C)C)[C@H]2O)[C@@H](CCN2C[C@H](C)C[C@H](C)C2)C[C@@H](C)C(=O)/C=C/C(C)=C\\[C@@H]1CO[C@@H]1O[C@H](C)[C@@H](O)[C@@H](OC)[C@H]1OC", "viability", 108],
  ["CC(N)(Cc1ccc(O)c(O)c1)C(=O)O (stereo not drawn)", "viability", 87.8],
  ["CC(=O)Nc1ccc(S(=O)(=O)Nc2onc(C)c2C)cc1", "viability", 98],
  ["Brc1c(Br)c(Br)c2n[nH]nc2c1Br", "viability", 173],
  ["Nc1ccc(S(=O)(=O)[O-])cc1.Nc1ccc(S(=O)(=O)[O-])cc1.[Zn+2]", "viability", 93.6],
  ["CCC(=O)NS(=O)(=O)c1ccc(-c2c(-c3ccccc3)noc2C)cc1", "viability", 68.9],
  ["O=C(O)C[C@H](O)C[C@H](O)/C=C/c1c(C2CC2)nc2ccccc2c1-c1ccc(F)cc1", "viability", 60.8]
]}

====

# Tested on: F380Y
# assay-explanation: modulators of BK channel variants, profiling panel, selectivity assay, cell-based, U2OS BacMam, thallium flux, beta subunits (AID 1259406);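 further: initial slope of Thallos dye fluorescence rise after thallium is added; log ratio against the mean of 0.3% DMSO vehicle wells on the same plate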
# experimental-context: at 30 µM
// values below are reported log fold change Tl+ flux

{"columns": ["compound", "tested-system", "log fold change Tl+ flux"],
 "data": [
  ["NC(Cc1cc(I)c(Oc2ccc(O)c(I)c2)c(I)c1)C(=O)O (centres undefined)", "F380Y", 0.0253],
  ["O=C(Nc1ccc(OC(F)(F)F)cc1)OC1CN(C(c2ccccc2)c2ccccc2)C1", "F380Y", -0.0399],
  ["N#CC(NCc1ccccc1Cl)=C(C#N)NCc1c(F)cccc1Cl", "F380Y", -0.0652],
  ["CC(=O)[C@@]1(O)CC[C@H]2[C@@H]3C[C@H](C)C4=CC(=O)CC[C@]4(C)[C@H]3CC[C@@]21C", "F380Y", 0.0243],
  ["Cc1c(C)c(C)c(C(=O)c2ccccc2C(=O)NN)c(C)c1C", "F380Y", 0.0326],
  ["Cc1ccc(S(N)(=O)=O)c(I)c1", "F380Y", 0.00642],
  ["Cn1cnc([N+](=O)[O-])c1Sc1cccs1", "F380Y", 0.0486],
  ["O=C(O)c1nnn(-c2ccccc2Oc2ccc(Cl)cc2Cl)c1-c1ccccc1", "F380Y", 0.0736],
  ["CN(C)CC/C=C1/c2ccccc2COc2ccccc21", "F380Y", 0.124],
  ["COC(=O)c1cc(C)nc(Sc2n[nH]c(-c3cc(Cl)cc(Cl)c3)n2)n1", "F380Y", -0.0391],
  ["CN/C(=C\\[N+](=O)[O-])NCCSCc1csc(CN(C)C)n1", "F380Y", 0.0132],
  ["CC(C)NCC(O)c1ccc(NS(C)(=O)=O)cc1 (centres undefined)", "F380Y", 0.0283],
  ["CSc1nc(N)nc(-c2cccs2)n1", "F380Y", 0.02],
  ["CC(C)c1ccc(NC(=S)NC2CC3CC2C2C=CCC32)cc1 (centres undefined)", "F380Y", 0.00954],
  ["CCOC(=O)c1ccc(NC(=O)CCC(=O)O)cc1", "F380Y", -0.0468],
  ["COC(=O)c1sccc1NN=C(C)c1ccc(NC(=O)C(Cl)Cl)cc1", "F380Y", 0.0593],
  ["COCCCNC1=C(C#N)C(=O)NC(c2cccs2)S1 (centres undefined)", "F380Y", 0.041],
  ["NC(=O)c1ncn(C2OC(CO)C(O)C2O)n1 (centres undefined)", "F380Y", -0.0109],
  ["O=c1c(O[C@@H]2O[C@H](CO)[C@H](O)[C@H](O)[C@H]2O)c(-c2ccc(O)c(O)c2)oc2cc(O)cc(O)c12", "F380Y", -0.00852],
  ["O=c1[nH]c2ccccc2c2ccccc12", "F380Y", 0.027],
  ["COC(=O)C(C#N)=CN(C)C", "F380Y", 0.0153],
  ["O=c1n(-c2ccccc2)c(=O)n2n1C1CCC2C1", "F380Y", -0.0367],
  ["COc1cc(C)c(/C=C/C(C)=C/C=C/C(C)=C/C(=O)O)c(C)c1C", "F380Y", -0.0381],
  ["CC(Cc1ccc(O)c(O)c1)(NN)C(=O)O (centres undefined)", "F380Y", -0.0414]
]}
